Where do the numbers come from? From PubChem BioAssay AID602273.

- Assay remarks: rescue of alpha-synuclein yeast toxicity, dose response, S. cerevisiae, plate reader, cherry-pick (AID 602273)
- Test conditions: S. cerevisiae alpha-synuclein toxicity rescue, OD600 growth, 24 h; at 26 µM (top of the series)
Experimental endpoint: growth rescue activity (%)
Numbers only, in %.

In the examples that follow, each entry is paired with its recorded growth rescue activity.
| Compound | Experimental endpoint | Units text | Readout number |
| --- | --- | --- | --- |
| COC(=O)C(C)Sc1ncnc2c1nnn2-c1ccc(F)cc1 (centres undefined) | growth rescue activity | % | -1.99 |
| Cc1c(/C=N/NC(=O)c2ccc(Br)o2)cnn1C | growth rescue activity | % | -2.43 |
| Cc1ccc(N2C(=O)SC(N(CC(=O)O)c3ccc(C)cc3)C2=O)cc1 (centres undefined) | growth rescue activity | % | -2.3 |
| Cc1csc2nc(CCNS(=O)(=O)c3cccs3)cn12 | growth rescue activity | % | 3.48 |
| COc1ccc(NC(=O)COC(=O)/C=C/C(=O)OCC(=O)Nc2ccc(OC)c(Cl)c2)cc1Cl | growth rescue activity | % | 3.29 |
| O=C(O)CC1=C(Nc2ccccc2)C(=O)N(c2ccccc2)C1c1ccc(Cl)cc1 (centres undefined) | growth rescue activity | % | 7.05 |
| CCOc1cccc(/C=C/c2ccc3cccc(O)c3n2)c1OC | growth rescue activity | % | -2.49 |
| Fc1ccccc1-c1nc2nc3ccccc3nc2n1CC1CCCO1 (centres undefined) | growth rescue activity | % | 11.6 |
| C/C(=N\NC(=O)c1ccoc1C)c1cccc2ccccc12 | growth rescue activity | % | 8.58 |
| O=C(Cc1cccs1)NCc1ccccc1Br | growth rescue activity | % | -5.14 |

Please report growth rescue activity for every entry that follows.
1. CC(C)C(=O)N1CCC(n2nccc2NC(=O)CCOc2ccccc2)CC1
2. O=C(CC12CCC(CC1)C2)NCc1ccc2c(c1)OCO2
3. COc1ccc2cc(/C=C/C(=O)N3CCN(CC(=O)N4CCCCCC4)CC3)ccc2c1
4. CC1(C)CC(=O)C(=Cc2cn(-c3ccccc3)nc2-c2ccccc2)C(=O)C1
5. Cn1cc([N+](=O)[O-])c(C(=O)Nc2ccc(-c3nc4ccccc4[nH]3)cc2)n1
6. Cc1nc2ccccc2nc(C)c1=NOCc1ccccc1Cl

Output:
1. -1.45
2. 2.83
3. -2.63
4. 1.64
5. -1.83
6. 0.053

====

Kindly supply the reported growth rescue activity values for the records listed here.
- Assay remarks: rescue of alpha-synuclein yeast toxicity, dose response, S. cerevisiae, plate reader, cherry-pick (AID 602273)
- Test conditions: S. cerevisiae alpha-synuclein toxicity rescue, OD600 growth, 24 h; at 26 µM (top of the series)
Give bare numbers, in %.

| Query smiles | growth rescue activity (%) |
| --- | --- |
| Cn1c(CO)cnc1SCC(=O)c1ccc(Cl)cc1 | 4.95 |

Lab note: each compound below needs its growth rescue activity filled in.
1. COc1ccc(CCNc2oc(-c3ccccc3OC)nc2C#N)cc1
2. COc1ccc(S(=O)(=O)n2nc(OC(=O)c3ccccc3Br)cc2N)cc1

Output:
1: 1.38; 2: -9.27
